assay: xn = mol fraction of the nth substance listed; settings: 288.15 K; 100.5 kPa; Liquid; x1 = 0.75
reported_metric: mass density (kg/m3)

>>> experimental_value("CCOC(=O)CC(C)C [ethyl 3-methylbutanoate] + CCO")
860.46
>>> experimental_value("CCC(=O)OCc1ccccc1 [benzyl propanoate] + CCO")
1011.09
>>> experimental_value("CCOC(=O)CC(C)=O [ethyl 3-oxobutanoate] + CCO")
1002.07
>>> experimental_value("CC(=O)OCc1ccccc1 [benzyl ethanoate] + CCO")
1029.05
>>> experimental_value("COC(=O)c1ccccc1 [methyl benzoate] + CCO")
1054.13
>>> experimental_value("CCOC(=O)c1ccccc1O [ethyl 2-hydroxybenzoate] + CCO")
1095.97

Hey, just so you know, these numbers are from the NIST ThermoML archive (doi:10.1021/je050402s).
